- assaySystem: T1, TIAM2, Q8IVF5
- T1 sequence (Q8IVF5 885-986, limits assumed, looked up): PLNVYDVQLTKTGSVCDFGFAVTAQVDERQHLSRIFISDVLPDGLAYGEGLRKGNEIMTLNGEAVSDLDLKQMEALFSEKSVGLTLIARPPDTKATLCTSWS
- measurementProtocol: holdup assay
- Design: key: below the threshold = too weak to quantify, mostly under pKd 3.1 to 4
- protocolConditions: plain residues with an end cap or a label only (N-terminal biotin on a linker: ado-ado)
Would you mind telling me the reported pKd of each entry?
Simply state the number, no unit and no words.

The binder listed as EFKQTSSFLV [JAM1, Q9Y624] shows pKd equal to 4.14

The binder listed as QLGSPTADLA [SIPA1, Q96FS4] shows pKd equal to 4.24

The binder listed as VYEVPVETKF [SLC26A3, P40879] shows pKd equal to 3.98

The binder listed as VKQYADVEGF [HNRNPK, P61978;P61978-2] shows pKd equal to 3.94

Data provenance: paper PMC9482650
